TARGET OF ASSAY: T1, Extracellular domain (ECD) of the canine IL-4 receptor alpha-V5 epitope-AviTag-His Tag (canine)
T1 construct: monomeric form isolated by size exclusion; also called canine IL-4RA-V5-Avi-His; canine IL-4RA
T1 chain: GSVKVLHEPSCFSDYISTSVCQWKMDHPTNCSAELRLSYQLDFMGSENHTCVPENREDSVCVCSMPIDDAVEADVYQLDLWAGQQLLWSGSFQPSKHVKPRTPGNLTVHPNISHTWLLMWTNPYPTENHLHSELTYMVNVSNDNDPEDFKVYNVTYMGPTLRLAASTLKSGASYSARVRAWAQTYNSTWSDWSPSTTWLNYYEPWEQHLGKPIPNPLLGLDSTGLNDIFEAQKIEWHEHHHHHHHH
TEST SUMMARY: SPR, Fab-SASA captured on BSA;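 note: biacore T200 SPR, Fab-SASA variants from E. coli conditioned medium captured on BSA-coated CM5 chip, canine IL-4RA injected 120 s then 420 s dissociation, 1:1 model fit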
PARAMETER: pKd
Please keep in mind that pKd is minus log10 of the molar concentration; only the number is needed.

Would you kindly share the measured pKd for TB640_005 Fab-SASA VH-L50M (Fab, V domains shown, not shown: SASA tag then His-tag) VH: EVQLVESGGDLVKPGGSLRLSCVASGFTFRDYAMTWVRQAPGKGLQWVSMISGSGGKTYYADAVKGRFTISRDNAKNTLYLQMNSLRAEDTAVYYCAVDRLTKTIRPQYYGLWVWGQGTLVTVSS VL: DIVMTQTPLSLSVSPGETASISCRSSQSLLYSIGYNYLDWYLQKPGQSPQGLIYLGSKRASGVPDRFSGSGSGTDFTLRISRVEANDTGVYYCMQGLQSPLTFGQGTKLEIKR ? 8.07

Would you kindly share the measured pKd for TB640_005 Fab-SASA VL-Q27E (Fab, V domains shown, not shown: SASA tag then His-tag) VH: EVQLVESGGDLVKPGGSLRLSCVASGFTFRDYAMTWVRQAPGKGLQWVSLISGSGGKTYYADAVKGRFTISRDNAKNTLYLQMNSLRAEDTAVYYCAVDRLTKTIRPQYYGLWVWGQGTLVTVSS VL: DIVMTQTPLSLSVSPGETASISCRSSESLLYSIGYNYLDWYLQKPGQSPQGLIYLGSKRASGVPDRFSGSGSGTDFTLRISRVEANDTGVYYCMQGLQSPLTFGQGTKLEIKR ? 7.87

Would you kindly share the measured pKd for TB640_005 Fab-SASA VL-I33P (Fab, V domains shown, not shown: SASA tag then His-tag) VH: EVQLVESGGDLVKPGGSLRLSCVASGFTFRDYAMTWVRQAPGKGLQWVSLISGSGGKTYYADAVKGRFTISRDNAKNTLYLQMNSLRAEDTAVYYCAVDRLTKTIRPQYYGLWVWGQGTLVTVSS VL: DIVMTQTPLSLSVSPGETASISCRSSQSLLYSPGYNYLDWYLQKPGQSPQGLIYLGSKRASGVPDRFSGSGSGTDFTLRISRVEANDTGVYYCMQGLQSPLTFGQGTKLEIKR ? 7.90

Data provenance: patent US20250188176A1
